meta.source: patent US20230340012A1

- Tested on: cancer cells
- protocol.text: MTT cytotoxic assay of esterification products (Cytotoxicity activity)
- Format: cell-based, human
- cond: esterification products isolated with HPLC; graded strong / moderate / weak
- Protocol: The peaks, fractions and compounds are selected according to the activities of times studies and the changes of peaks. Selecting the HPLC fractions for isolation is according to the cytotoxic activity of the reaction product obtained at a specific time. The compounds having strong to weak activities are selected and isolated. […] Method: 40 mg of triterpene core (fraction IV) was dissolved in 1 ml pyridine in a 50 ml tube. […] Structures are determined with NMR. […]
metric.name: Cytotoxicity activity

Worked examples follow.
{"molecule": "CC=C(C)C(=O)OCC1(C)C(OC(=O)C=Cc2ccccc2)CCC2(C)C1CCC1(C)C2CC=C2C3CC(C)(C)C(O)C(O)C3(COC(=O)C(C)=CC)C(O)CC21C (stereo not shown)", "Cytotoxicity activity": "moderate"}
{"molecule": "CC=C(C)C(=O)OCC1(C)C(OC(C)=O)CCC2(C)C1CCC1(C)C2CC=C2C3CC(C)(C)C(O)C(OC(C)=O)C3(COC(=O)C(C)=CC)C(O)CC21C (stereo not shown)", "Cytotoxicity activity": "weak"}
{"molecule": "CC=C(C)C(=O)OCC1(C)C(OC(=O)CCCCC)CCC2(C)C1CCC1(C)C2CC=C2C3CC(C)(C)C(O)C(O)C3(COC(=O)C(C)=CC)C(O)CC21C (stereo not shown)", "Cytotoxicity activity": "moderate"}
{"molecule": "CC=C(C)C(=O)OCC1(C)C(O)CCC2(C)C1CCC1(C)C2CC=C2C3CC(C)(C)C(O)C(OC(=O)C(C)=CC)C3(CO)C(O)CC21C (stereo not shown)", "Cytotoxicity activity": "moderate"}
{"molecule": "CC=C(C)C(=O)OCC1(C)C(O)CCC2(C)C1CCC1(C)C2CC=C2C3CC(C)(C)C(O)C(OC(=O)C=Cc4ccccc4)C3(CO)C(O)CC21C (stereo not shown)", "Cytotoxicity activity": "moderate"}

Req: Supply reported Cytotoxicity activity belonging to this molecule: CC=CC(=O)OCC12C(O)CC3(C)C(=CCC4C5(C)CCC(O)C(C)(COC(=O)C(C)=CC)C5CCC43C)C1CC(C)(C)C(O)C2OC(=O)C=CC (stereo not shown)
Resp: moderate

====

- System: cancer cells
- protocol.text: MTT cytotoxic assay of esterification products (Cytotoxicity activity)
- Format: cell-based, human
- cond: E4A esterified with 2-propenoyl chloride (Ppe = Propenoyl), compounds isolated with HPLC
metric.name: Cytotoxicity activity

{"compound": "CC1(C)CC2C3=CCC4C5(C)CCC(O)C(C)(COC(=O)c6ccccc6)C5CCC4(C)C3(C)CC(OC(=O)c3ccccc3)C2(COC(=O)c2ccccc2)C(OC(=O)c2ccccc2)C1OC(=O)c1ccccc1 (centres unmarked)", "Cytotoxicity activity": "weak"}
{"compound": "CC1(C)CC2C3=CCC4C5(C)CCC(O)C(C)(COC(=O)c6ccccc6)C5CCC4(C)C3(C)CC(OC(=O)c3ccccc3)C2(CO)C(O)C1O (centres unmarked)", "Cytotoxicity activity": "moderate"}
{"compound": "CC1(C)CC2C3=CCC4C5(C)CCC(O)C(C)(CO)C5CCC4(C)C3(C)CC(O)C2(COC(=O)c2ccccc2)C(OC(=O)c2ccccc2)C1OC(=O)c1ccccc1 (centres unmarked)", "Cytotoxicity activity": "moderate"}
{"compound": "CC1(C)CC2C3=CCC4C5(C)CCC(O)C(C)(CO)C5CCC4(C)C3(C)CC(O)C2(CO)C(OC(=O)c2ccccc2)C1OC(=O)c1ccccc1 (centres unmarked)", "Cytotoxicity activity": "moderate"}

Let us examine a further case.
Req: Supply reported Cytotoxicity activity belonging to this compound: CC1(C)CC2C3=CCC4C5(C)CCC(OC(=O)c6ccccc6)C(C)(CO)C5CCC4(C)C3(C)CC(O)C2(COC(=O)c2ccccc2)C(O)C1O (centres unmarked)
Resp: moderate

====

# Lookup of reported IC50 of lung (H460) keyed by entry
- Test system: H460
- protocol.text: MTT assay, lung (H460)
- Assay type: cell-based, human
- cond: MTT
Field: numeric (µg/mL). Do not append units.

{"compound": "CC=C(C)C(=O)OCC1(C)C(O)CCC2(C)C1CCC1(C)C2CC=C2C3CC(C)(C)C(O)C(OC(=O)C(C)=CC)C3(COC(=O)C(C)=CC)C(O)CC21C (stereo not drawn)", "assay.target": "H460", "quantity.unit": "µg/mL", "IC50 of lung (H460)": 21}
{"compound": "CC=C(C)C(=O)OCC1(C)C(OC(=O)C(C)=CC)CCC2(C)C1CCC1(C)C2CC=C2C3CC(C)(C)C(OC(=O)C(C)=CC)C(O)C3(CO)C(O)CC21C (stereo not drawn)", "assay.target": "H460", "quantity.unit": "µg/mL", "IC50 of lung (H460)": 19}
{"compound": "CC=C(C)C(=O)OCC1(C)C(O)CCC2(C)C1CCC1(C)C2CC=C2C3CC(C)(C)C(OC(=O)C(C)=CC)C(O)C3(COC(=O)C(C)=CC)C(O)CC21C (stereo not drawn)", "assay.target": "H460", "quantity.unit": "µg/mL", "IC50 of lung (H460)": 6.8}

Req: Supply reported IC50 of lung (H460) belonging to this compound: CC=C(C)C(=O)OCC1(C)C(O)CCC2(C)C1CCC1(C)C2CC=C2C3CC(C)(C)C(O)C(O)C3(CO)C(O)CC21C (stereo not drawn)
Resp: 13

Req: Supply reported IC50 of lung (H460) belonging to this compound: CC=C(C)C(=O)OCC1(C)C(O)CCC2(C)C1CCC1(C)C2CC=C2C3CC(C)(C)C(O)C(OC(=O)C(C)=CC)C3(CO)C(O)CC21C (stereo not drawn)
Resp: 18

Req: Supply reported IC50 of lung (H460) belonging to this compound: CC=C(C)C(=O)OCC1(C)C(O)CCC2(C)C1CCC1(C)C2CC=C2C3CC(C)(C)C(OC(=O)C(C)=CC)C(O)C3(CO)C(O)CC21C (stereo not drawn)
Resp: 5.6

====

- Test system: cancer cells
- protocol.text: MTT cytotoxic assay of esterification products (Cytotoxicity activity)
- Assay type: cell-based, human
- cond: esterification products of core compound E4A with Octanoyl chloride (Oct = Octanoyl)
metric.name: Cytotoxicity activity

{"molecule": "CC1(C)CC2C3=CCC4C5(C)CCC(OC(=O)c6ccccc6)C(C)(COC(=O)c6ccccc6)C5CCC4(C)C3(C)CC(O)C2(COC(=O)c2ccccc2)C(OC(=O)c2ccccc2)C1O (centres unmarked)", "assay.target": "cancer cells", "Cytotoxicity activity": "weak"}
{"molecule": "CC1(C)CC2C3=CCC4C5(C)CCC(OC(=O)c6ccccc6)C(C)(CO)C5CCC4(C)C3(C)CC(O)C2(CO)C(OC(=O)c2ccccc2)C1OC(=O)c1ccccc1 (centres unmarked)", "assay.target": "cancer cells", "Cytotoxicity activity": "moderate"}
{"molecule": "CC1(C)CC2C3=CCC4C5(C)CCC(OC(=O)c6ccccc6)C(C)(COC(=O)c6ccccc6)C5CCC4(C)C3(C)CC(OC(=O)c3ccccc3)C2(COC(=O)c2ccccc2)C(OC(=O)c2ccccc2)C1OC(=O)c1ccccc1 (centres unmarked)", "assay.target": "cancer cells", "Cytotoxicity activity": "none"}
{"molecule": "CC1(C)CC2C3=CCC4C5(C)CCC(OC(=O)c6ccccc6)C(C)(COC(=O)c6ccccc6)C5CCC4(C)C3(C)CC(O)C2(COC(=O)c2ccccc2)C(OC(=O)c2ccccc2)C1OC(=O)c1ccccc1 (centres unmarked)", "assay.target": "cancer cells", "Cytotoxicity activity": "weak"}

Req: Supply reported Cytotoxicity activity belonging to this molecule: CC1(C)CC2C3=CCC4C5(C)CCC(O)C(C)(CO)C5CCC4(C)C3(C)CC(OC(=O)c3ccccc3)C2(CO)C(OC(=O)c2ccccc2)C1OC(=O)c1ccccc1 (centres unmarked)
Resp: moderate

====

- Test system: cancer cells
- protocol.text: MTT cytotoxic assay of esterification products (Cytotoxicity activity)
- Format: cell-based, human
- cond: esterification products of core compound E4A with Octanoyl chloride (Oct = Octanoyl)
metric.name: Cytotoxicity activity

Worked examples follow.
{"molecule": "CC1(C)CC2C3=CCC4C5(C)CCC(O)C(C)(COC(=O)c6ccccc6)C5CCC4(C)C3(C)CC(OC(=O)c3ccccc3)C2(CO)C(O)C1O (centres unmarked)", "assay.target": "cancer cells", "metric.name": "Cytotoxicity activity", "data.value": "moderate"}
{"molecule": "CC1(C)CC2C3=CCC4C5(C)CCC(OC(=O)c6ccccc6)C(C)(COC(=O)c6ccccc6)C5CCC4(C)C3(C)CC(OC(=O)c3ccccc3)C2(COC(=O)c2ccccc2)C(O)C1OC(=O)c1ccccc1 (centres unmarked)", "assay.target": "cancer cells", "metric.name": "Cytotoxicity activity", "data.value": "weak"}
{"molecule": "CC1(C)CC2C3=CCC4C5(C)CCC(O)C(C)(CO)C5CCC4(C)C3(C)CC(O)C2(COC(=O)c2ccccc2)C(OC(=O)c2ccccc2)C1OC(=O)c1ccccc1 (centres unmarked)", "assay.target": "cancer cells", "metric.name": "Cytotoxicity activity", "data.value": "moderate"}
{"molecule": "CC1(C)CC2C3=CCC4C5(C)CCC(O)C(C)(COC(=O)c6ccccc6)C5CCC4(C)C3(C)CC(OC(=O)c3ccccc3)C2(COC(=O)c2ccccc2)C(O)C1OC(=O)c1ccccc1 (centres unmarked)", "assay.target": "cancer cells", "metric.name": "Cytotoxicity activity", "data.value": "weak"}

Let us examine a further case.
Req: Supply reported Cytotoxicity activity belonging to this molecule: CC1(C)CC2C3=CCC4C5(C)CCC(OC(=O)c6ccccc6)C(C)(COC(=O)c6ccccc6)C5CCC4(C)C3(C)CC(O)C2(CO)C(O)C1O (centres unmarked)
Resp: moderate
